MEASURE_NAME: melting point

Examples with answers:
O=c1oc2cccc(O)c2c(O)c1-c1ccccc1    256 to 265 °C
COc1ccc(-c2cc(-c3ccc(F)cc3)c3c(=O)n(C)c(=O)n(C)c3n2)cc1    240 to 243 °C
NS(=O)(=O)c1cc(C(=O)c2cc3ccccc3o2)ccc1Cl    167 to 170 °C
O=C1C=CC(O)(c2cccs2)C=C1    103 °C
O=C(O)c1c(F)c(OC(F)F)c(F)c(F)c1[N+](=O)[O-]    77 to 80 °C

Lookup: I would be grateful if you could share the reported melting point for "COC(=O)[C@@H](C)N[C@@H](CC(C)(C)C)C(=O)O" .
Found: 120 to 124 °C

Lookup: Now the same for "COc1ccnc(CSc2nc3cc4c(cc3[nH]2)OC(F)(F)O4)c1OC"
Found: 185 to 187 °C

Lookup: Lookup "COc1nc2ccccc2nc1NC(=S)N1CCN(c2cc(F)cc(F)c2)CC1"
Found: 280 to 281 °C

Lookup: Same read-out for CC(C)(C)C(=O)C1=C(O)C(=O)N(c2ccc(-c3ccon3)cc2)C1C1CCCCC1 (stereo not given) ?
Found: 259 to 260 °C

Lookup: Now give it for "CC(C)Oc1ccc(C(=O)N/C(=C\c2ccc(OC(F)(F)F)cc2)C(=O)NCCO)cc1" too.
Found: 142 to 146 °C

###

The entries below come with measured melting point values attached.

As a guide, the following entries are already answered.
Cn1c(=O)c(-c2c(Cl)cccc2Cl)cc2cnc(NCc3cccnc3)nc21    224 to 226 °C
CC(=O)Oc1ccc(CI)cc1C(OC(C)=O)OC(C)=O    117 to 120 °C
C=CCN1C(=O)C(C)N(c2ccc(Cc3ccccc3)cc2)C1=S (stereo not given)    62 to 64 °C
CCN(CC)C(=O)c1ccc2ccccc2c1-c1ccsc1    71 to 73 °C
CCc1[nH]n(-c2c(Cl)cc(C(=O)O)cc2Cl)c2nc(Cc3ccc(OC)cc3)nc(=O)c1-2    277 °C

Lookup: Requested field: melting point. Item: "Cc1ccccc1C(=O)Nc1ccc(C(=O)N2Cc3cccn3Cc3sccc32)cc1"
Found: 162 to 188 °C

###

MEASURE_NAME: melting point

// solved cases for melting point follow
CC(/C=C/c1ccsc1-c1ccc2c(c1)C(C)(C)CCC2(C)C)=C\C(=O)O    195 to 197 °C
O=C(Cn1nc2ccccc2n1)Nc1ccc(-n2nc(C(F)(F)F)cc2C2CC2)cc1    188 to 192 °C
O=C(NCc1cc(Cl)cc(Cl)c1)c1ccnc(NC(=O)c2ccccc2)c1    248 to 251 °C

Lookup: Name the reported melting point value associated with the compound "CCNc1cc(O)c(C(C)=O)cc1C(C)=O"
Found: 103 to 104 °C

Lookup: And then "CCc1nc2c(N)nc3ccccc3c2n1CCOCCNC(=O)NC1CCCCC1" , what is it?
Found: 198 to 200 °C

###

MEASURE_NAME: melting point

Cc1nnc(-c2ccccc2)c2nc(OCc3ncnn3C)c(C3CCCC3)n12    137 °C
O=C(CCCCCOc1ccc2c(c1)[nH]c1ccccc12)NO    192 °C
CC1(C)CCC(C)(C)c2cc(NCc3ccc(C(=O)O)cc3)ccc21    225 to 231 °C
CC(C)c1cccc(S(=O)(=O)n2c(Cc3ccc(C(=O)O)cc3)cc3cc(Cl)ccc32)c1    181 °C
CC(C)(C)OC(=O)NCCC(=O)NCCC(=O)OCc1ccccc1    84 to 85 °C

Lookup: Any idea what its melting point is? The compound is "CNc1cnc(-c2cccnc2)s1"
Found: 141 to 146 °C

Lookup: Would you mind doing "Cc1cc(NCC(C)C)c(N)c2nnnn12" as well?
Found: 159 to 162 °C

Lookup: What about this compound? Fc1cccc2c1OC1CN(Cc3ccccc3)CC1O2 (configuration not stated)
Found: 80 to 81 °C

Lookup: Repeat for the following compound: "CN(C)c1ncc2cc(-c3c(Cl)cccc3Cl)c(=O)n(C)c2n1"
Found: 256 to 258 °C

Lookup: Please answer likewise for "Cc1c(N2CCc3ccccc3C2)c(F)cn2c(=O)c(C(=O)O)cc(C3CC3)c12"
Found: 214 to 215 °C

Lookup: // same read-out, input: "N#Cc1ncn2c1[C@@H]1CCCN1C(=O)c1cc(F)ccc1-2"
Found: 254 to 256 °C

Lookup: Another: "N#Cc1ccc(C=C2CCCN(C(=O)c3ccc(Cl)cc3)C2)cc1"
Found: > 210 °C

Lookup: Try CC(NC(=O)Cc1cc(F)cc(F)c1)C(=O)NC1C(=O)NCc2cc(Cc3ccccc3)ccc21 (configuration not stated) next.
Found: 159 to 166 °C

Lookup: Could you do the same for "CN(CCc1ccc(Nc2ncc3c(n2)-c2ccccc2[C@H](c2ccc(F)cc2)C3)cc1)C1CCCCC1" , please?
Found: 160 to 162 °C
